Measured Population Healthy Nuclei (%) values are reported for all entries that follow.
tested on: HEK-293T; assay: Multiplex assay against HEK293T; format: toxicity, cell-based; conditions: human, 12 h, 1 µM, compound concentration 1 uM, replicate 1
Kindly provide the numeric value in % only, without the unit symbol.

Please review the following examples before continuing.
N#Cc1cnc(Nc2cc(NC[C@H]3CNCCO3)c(C(F)(F)F)cn2)cn1 [SRA-737] ... 66
COc1cc2c(Nc3ccc(NC(=O)c4ccccc4)cc3)ncnc2cc1OCCCN1CCOCC1 ... 42

Kindly consider the entry below.
Name the recorded Population Healthy Nuclei (%) of the item CN(C)CCOc1ccc(-c2nc(-c3ccncc3)c(-c3ccc4c(c3)CC/C4=N\O)[nH]2)cc1 [SB590885] in your answer.
65
